B1: NCK2 (parent)
chain: YTGPSSSGRFAGREWYYGNVTRHQ

# Variants of: B1
# measurement-protocol: protein stability index of a GFP-peptide fusion (GPS, HEK-293T) (PSI 1-6); higher = more stable;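 note: lentivirally expressed fusions sorted by FACS into six bins by GFP to DsRed ratio, PSI derived from sequencing read proportions per bin multiplied by bin number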
# study-conditions: c terminus: a fixed tail appended
# if value of protein stability index reaches 2, tag Satisfied; if it stays below, tag Not satisfied

These recorded examples may help you get a feel for the data.
> print(dat)
             sequence.chain    label.class
1  YTWPSSSGRFAGREWYYGNVTRHQ      Satisfied
2  YTGPSSSGRQAGREWYYGNVTRHQ  Not satisfied
3  YTGPSSSGRFAGREWYYGNVTRKQ      Satisfied
4  WTGPSSSGRFAGREWYYGNVTRHQ      Satisfied
5  YTGPSSSGRFAGREWYYGNVARHQ  Not satisfied
6  YTGPSSSGRTAGREWYYGNVTRHQ      Satisfied

Is the recorded value of protein stability index equal to or greater than 2 for this variant? YTGPSSSGRFAGGEWYYGNVTRHQ
Satisfied

Sourced from the supplement of paper PMC10567573
